# Target system: T1, DDX43 KH-89 (UniProt Q9NXZ2 54-142)
# T1 sequence: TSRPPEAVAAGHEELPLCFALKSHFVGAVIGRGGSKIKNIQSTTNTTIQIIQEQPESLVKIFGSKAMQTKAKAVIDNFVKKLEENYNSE
# Test method notes: NMR HSQC titration; EMSA: 40 mM Tris pH 8.0, 0.5 mM MgCl2, 15 mM NaCl, 0.01% NP-40, 0.1 mM DTT, 1 mg/ml BSA, no ATP, ice 30 min (Fig 2A legend: RT); filter binding: 25 mM Tris pH 7.5, 25 mM KOAc, 1 mM Mg(OAc)2, 1 mM DTT, 0.1 mg/ml BSA, 37 C; NMR: 25 mM Hepes pH 7.4, 250 mM NaCl, 5% D2O, temperature not stated
# Test settings: protein: recombinant; His removed by thrombin for NMR; 15N
In this section we review reported log10 of Kd values for a set of binders.
// units: µM (pre-log); metric: Kd; scale: log10

Solved entries (count: 3):
{"Binder": "CCCCC (ssDNA) [dC5]", "Value": 3.32}
{"Binder": "GTTGT (ssDNA)", "Value": 1.64}
{"Binder": "TGTGT (ssDNA)", "Value": 1.89}

// query log10 of Kd value for entry UUUUU (ssRNA) [rU5]
3.26

Quick one: TTTTTTTTTT (ssDNA) [dT10]
2.24

Quick one: TTTTT (ssDNA) [dT5]
3.18

Quick one: CGCGC (ssDNA)
2.42
